# tested-target: ChlR1 (DDX11), ChlR1-WT (Homo sapiens)
# Sequence (Q96FC9 1-906 isoform Q96FC9-2): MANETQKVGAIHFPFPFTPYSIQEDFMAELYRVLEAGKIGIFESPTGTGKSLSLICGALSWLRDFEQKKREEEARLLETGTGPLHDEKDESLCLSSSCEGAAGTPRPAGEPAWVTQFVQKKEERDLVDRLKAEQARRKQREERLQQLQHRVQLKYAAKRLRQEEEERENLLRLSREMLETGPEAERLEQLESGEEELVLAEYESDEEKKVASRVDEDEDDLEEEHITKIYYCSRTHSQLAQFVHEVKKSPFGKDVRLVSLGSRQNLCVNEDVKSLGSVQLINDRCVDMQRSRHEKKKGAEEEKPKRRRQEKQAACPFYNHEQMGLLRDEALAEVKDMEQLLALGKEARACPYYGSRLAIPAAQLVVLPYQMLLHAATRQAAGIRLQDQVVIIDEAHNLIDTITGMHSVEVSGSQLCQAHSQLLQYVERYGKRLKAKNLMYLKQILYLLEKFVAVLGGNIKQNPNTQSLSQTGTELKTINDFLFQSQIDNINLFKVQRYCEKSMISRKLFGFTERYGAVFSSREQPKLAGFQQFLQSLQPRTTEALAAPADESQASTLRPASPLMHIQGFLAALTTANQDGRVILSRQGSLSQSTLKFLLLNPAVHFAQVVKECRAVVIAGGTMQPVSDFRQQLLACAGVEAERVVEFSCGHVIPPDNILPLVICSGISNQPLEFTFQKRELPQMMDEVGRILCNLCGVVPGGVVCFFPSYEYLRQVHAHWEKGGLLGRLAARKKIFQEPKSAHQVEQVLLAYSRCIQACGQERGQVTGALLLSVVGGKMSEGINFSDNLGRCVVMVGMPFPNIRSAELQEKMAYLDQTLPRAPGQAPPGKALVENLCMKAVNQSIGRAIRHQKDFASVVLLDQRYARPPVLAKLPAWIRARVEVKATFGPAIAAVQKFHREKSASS
pKd: −log10 of the molar value.
measurement-name: pKd

INSERT INTO measurements (molecule, measurement_name, measured_result) VALUES
  ('Nc1ncnc2c1ncn2[C@@H]1O[C@H](COP(=O)(O)OP(=O)(O)OP(=O)(O)O)[C@@H](O)[C@H]1O [ATP]', 'pKd', 7.29);
